Assay: Pharmacokinetics experiment in SD rats
Format: in vivo
Conditions: male SD rats, ig (oral), 5 mg/kg
Known F of a selection of compounds
Provide the reading as a plain figure in %.

{"structure_string": "COc1nc(-c2cccc(-c3cccc(Nc4nc(C(F)F)nc5cc(CN6CC[C@@H](O)C6)cnc45)c3C)c2Cl)ccc1CN(C)[C@H]1CC[C@H](C(=O)O)CC1", "unit_text": "%", "value": 32}
{"structure_string": "[2H]C([2H])([2H])N(Cc1ncc(-c2cccc(-c3cccc(Nc4nc(C(F)F)nc5cc(CN6CC[C@@H](O)C6)cnc45)c3C)c2Cl)cc1OC)C[C@H]1CC[C@H](C(=O)O)CC1", "unit_text": "%", "value": 57.8}
{"structure_string": "COc1nc(-c2cccc(-c3cccc(Nc4nc(C(F)F)nc5cc(CN6CC[C@@H](O)C6)cnc45)c3C)c2Cl)ccc1CN(C)C[C@H]1CC[C@H](C(=O)O)CC1", "unit_text": "%", "value": 55}
{"structure_string": "COc1nc(-c2cccc(-c3cccc(Nc4nc(C(F)F)nc5cc(CN6CC[C@@H](O)C6)cnc45)c3C)c2Cl)cnc1CN(C)[C@H]1CC[C@H](C(=O)O)CC1", "unit_text": "%", "value": 52.9}

// moving on: another record for F
The compound listed as COc1nc(-c2cccc(-c3cccc(Nc4nc(C(F)F)nc5cc(CN6CC[C@@H](O)C6)cnc45)c3C)c2Cl)ccc1CN1CCC(C(=O)O)CC1 has a reported F of 23

* * *

Known Cmax of a selection of compounds
Assay: Pharmacokinetics experiment in SD rats
Type: in vivo
Details: rat, plasma; male SD rats, ig (oral), 5 mg/kg
Provide the reading as a plain figure in ng/mL.

{"structure_string": "COc1nc(-c2cccc(-c3cccc(Nc4nc(C(F)F)nc5cc(CN6CC[C@@H](O)C6)cnc45)c3C)c2Cl)ccc1CN(C)[C@H]1CC[C@H](C(=O)O)CC1", "unit_text": "ng/mL", "value": 935}
{"structure_string": "[2H]C([2H])([2H])N(Cc1ncc(-c2cccc(-c3cccc(Nc4nc(C(F)F)nc5cc(CN6CC[C@@H](O)C6)cnc45)c3C)c2Cl)cc1OC)C[C@H]1CC[C@H](C(=O)O)CC1", "unit_text": "ng/mL", "value": 1850}

The compound listed as COc1nc(-c2cccc(-c3cccc(Nc4nc(C(F)F)nc5cc(CN6CC[C@@H](O)C6)cnc45)c3C)c2Cl)cnc1CN(C)[C@H]1CC[C@H](C(=O)O)CC1 has a reported Cmax of 1630

The compound listed as COc1nc(-c2cccc(-c3cccc(Nc4nc(C(F)F)nc5cc(CN6CC[C@@H](O)C6)cnc45)c3C)c2Cl)ccc1CN1CCC(C(=O)O)CC1 has a reported Cmax of 1260

The compound listed as COc1nc(-c2cccc(-c3cccc(Nc4nc(C(F)F)nc5cc(CN6CC[C@@H](O)C6)cnc45)c3C)c2Cl)ccc1CN(C)C[C@H]1CC[C@H](C(=O)O)CC1 has a reported Cmax of 1980

* * *

Assay: Pharmacokinetics experiment in SD rats
Type: in vivo
Details: rat, plasma; male SD rats, iv, 1 mg/kg
experimental_endpoint: clearance (mL/min/kg)
Provide the reading as a plain figure in mL/min/kg.

{"structure_string": "COc1nc(-c2cccc(-c3cccc(Nc4nc(C(F)F)nc5cc(CN6CC[C@@H](O)C6)cnc45)c3C)c2Cl)ccc1CN(C)C[C@H]1CC[C@H](C(=O)O)CC1", "experimental_endpoint": "clearance", "value": 1.6}
{"structure_string": "COc1nc(-c2cccc(-c3cccc(Nc4nc(C(F)F)nc5cc(CN6CC[C@@H](O)C6)cnc45)c3C)c2Cl)cnc1CN(C)[C@H]1CC[C@H](C(=O)O)CC1", "experimental_endpoint": "clearance", "value": 2.6}
{"structure_string": "COc1nc(-c2cccc(-c3cccc(Nc4nc(C(F)F)nc5cc(CN6CC[C@@H](O)C6)cnc45)c3C)c2Cl)ccc1CN1CCC(C(=O)O)CC1", "experimental_endpoint": "clearance", "value": 1.3}
{"structure_string": "COc1nc(-c2cccc(-c3cccc(Nc4nc(C(F)F)nc5cc(CN6CC[C@@H](O)C6)cnc45)c3C)c2Cl)ccc1CN(C)[C@H]1CC[C@H](C(=O)O)CC1", "experimental_endpoint": "clearance", "value": 2.1}

The molecule listed as [2H]C([2H])([2H])N(Cc1ncc(-c2cccc(-c3cccc(Nc4nc(C(F)F)nc5cc(CN6CC[C@@H](O)C6)cnc45)c3C)c2Cl)cc1OC)C[C@H]1CC[C@H](C(=O)O)CC1 has a reported clearance of 1.7

* * *

Test: Pharmacokinetics experiment in SD rats
Format: in vivo
Conditions: rat, plasma; male SD rats, iv, 1 mg/kg
Known Cmax of a selection of compounds
Provide the reading as a plain figure in ng/mL.

Here is how some compounds turned out for Cmax.
{"compound": "COc1nc(-c2cccc(-c3cccc(Nc4nc(C(F)F)nc5cc(CN6CC[C@@H](O)C6)cnc45)c3C)c2Cl)ccc1CN(C)C[C@H]1CC[C@H](C(=O)O)CC1 [Example 17]", "unit_text": "ng/mL", "Cmax": 675}
{"compound": "COc1nc(-c2cccc(-c3cccc(Nc4nc(C(F)F)nc5cc(CN6CC[C@@H](O)C6)cnc45)c3C)c2Cl)ccc1CN1CCC(C(=O)O)CC1 [Example 40]", "unit_text": "ng/mL", "Cmax": 1870}
{"compound": "COc1nc(-c2cccc(-c3cccc(Nc4nc(C(F)F)nc5cc(CN6CC[C@@H](O)C6)cnc45)c3C)c2Cl)cnc1CN(C)[C@H]1CC[C@H](C(=O)O)CC1 [Example 11]", "unit_text": "ng/mL", "Cmax": 1100}

The compound listed as COc1nc(-c2cccc(-c3cccc(Nc4nc(C(F)F)nc5cc(CN6CC[C@@H](O)C6)cnc45)c3C)c2Cl)ccc1CN(C)[C@H]1CC[C@H](C(=O)O)CC1 [Example 1] has a reported Cmax of 877

The compound listed as [2H]C([2H])([2H])N(Cc1ncc(-c2cccc(-c3cccc(Nc4nc(C(F)F)nc5cc(CN6CC[C@@H](O)C6)cnc45)c3C)c2Cl)cc1OC)C[C@H]1CC[C@H](C(=O)O)CC1 [Example 38] has a reported Cmax of 621

* * *

Assay: Pharmacokinetics experiment in SD rats
Assay type: in vivo
Details: rat, plasma; male SD rats, ig (oral), 5 mg/kg
Protocol: Experiment 2: Pharmacokinetics Experiment […] 3) A standard curve of an appropriate range was established according to the sample concentration, and the concentration of the test compound in the plasma sample was determined in the MRM mode using an AB SCIEX Q TRAP 4000 LC-MS/MS. The pharmacokinetic parameters were calculated using the non-compartmental model method using WinNonLin 6.3 software.
Known AUC(0-t) of a selection of compounds
Provide the reading as a plain figure in ng·h/mL.

Here is how some compounds turned out for AUC(0-t).
{"compound": "COc1nc(-c2cccc(-c3cccc(Nc4nc(C(F)F)nc5cc(CN6CC[C@@H](O)C6)cnc45)c3C)c2Cl)ccc1CN(C)C[C@H]1CC[C@H](C(=O)O)CC1 [Example 17]", "experimental_endpoint": "AUC(0-t)", "value": 27000}
{"compound": "[2H]C([2H])([2H])N(Cc1ncc(-c2cccc(-c3cccc(Nc4nc(C(F)F)nc5cc(CN6CC[C@@H](O)C6)cnc45)c3C)c2Cl)cc1OC)C[C@H]1CC[C@H](C(=O)O)CC1 [Example 38]", "experimental_endpoint": "AUC(0-t)", "value": 25900}
{"compound": "COc1nc(-c2cccc(-c3cccc(Nc4nc(C(F)F)nc5cc(CN6CC[C@@H](O)C6)cnc45)c3C)c2Cl)cnc1CN(C)[C@H]1CC[C@H](C(=O)O)CC1 [Example 11]", "experimental_endpoint": "AUC(0-t)", "value": 16700}
{"compound": "COc1nc(-c2cccc(-c3cccc(Nc4nc(C(F)F)nc5cc(CN6CC[C@@H](O)C6)cnc45)c3C)c2Cl)ccc1CN(C)[C@H]1CC[C@H](C(=O)O)CC1 [Example 1]", "experimental_endpoint": "AUC(0-t)", "value": 12300}

The compound listed as COc1nc(-c2cccc(-c3cccc(Nc4nc(C(F)F)nc5cc(CN6CC[C@@H](O)C6)cnc45)c3C)c2Cl)ccc1CN1CCC(C(=O)O)CC1 [Example 40] has a reported AUC(0-t) of 15100

* * *

Experiment: Pharmacokinetics experiment in SD rats
Type: in vivo
Conditions: rat, plasma; male SD rats, iv, 1 mg/kg
experimental_endpoint: AUC(0-t) (ng·h/mL)
Provide the reading as a plain figure in ng·h/mL.

{"structure_string": "COc1nc(-c2cccc(-c3cccc(Nc4nc(C(F)F)nc5cc(CN6CC[C@@H](O)C6)cnc45)c3C)c2Cl)ccc1CN(C)[C@H]1CC[C@H](C(=O)O)CC1", "AUC(0-t), ng·h/mL": 7710}
{"structure_string": "[2H]C([2H])([2H])N(Cc1ncc(-c2cccc(-c3cccc(Nc4nc(C(F)F)nc5cc(CN6CC[C@@H](O)C6)cnc45)c3C)c2Cl)cc1OC)C[C@H]1CC[C@H](C(=O)O)CC1", "AUC(0-t), ng·h/mL": 8890}
{"structure_string": "COc1nc(-c2cccc(-c3cccc(Nc4nc(C(F)F)nc5cc(CN6CC[C@@H](O)C6)cnc45)c3C)c2Cl)ccc1CN1CCC(C(=O)O)CC1", "AUC(0-t), ng·h/mL": 12900}
{"structure_string": "COc1nc(-c2cccc(-c3cccc(Nc4nc(C(F)F)nc5cc(CN6CC[C@@H](O)C6)cnc45)c3C)c2Cl)ccc1CN(C)C[C@H]1CC[C@H](C(=O)O)CC1", "AUC(0-t), ng·h/mL": 9760}

// moving on: another record for AUC(0-t)
The compound listed as COc1nc(-c2cccc(-c3cccc(Nc4nc(C(F)F)nc5cc(CN6CC[C@@H](O)C6)cnc45)c3C)c2Cl)cnc1CN(C)[C@H]1CC[C@H](C(=O)O)CC1 has a reported AUC(0-t) of 6370
